Recorded enrichment ratio by entry
B1: PhoQ; a variant is named by its letters at X, in order, P23837 (parent)
chain: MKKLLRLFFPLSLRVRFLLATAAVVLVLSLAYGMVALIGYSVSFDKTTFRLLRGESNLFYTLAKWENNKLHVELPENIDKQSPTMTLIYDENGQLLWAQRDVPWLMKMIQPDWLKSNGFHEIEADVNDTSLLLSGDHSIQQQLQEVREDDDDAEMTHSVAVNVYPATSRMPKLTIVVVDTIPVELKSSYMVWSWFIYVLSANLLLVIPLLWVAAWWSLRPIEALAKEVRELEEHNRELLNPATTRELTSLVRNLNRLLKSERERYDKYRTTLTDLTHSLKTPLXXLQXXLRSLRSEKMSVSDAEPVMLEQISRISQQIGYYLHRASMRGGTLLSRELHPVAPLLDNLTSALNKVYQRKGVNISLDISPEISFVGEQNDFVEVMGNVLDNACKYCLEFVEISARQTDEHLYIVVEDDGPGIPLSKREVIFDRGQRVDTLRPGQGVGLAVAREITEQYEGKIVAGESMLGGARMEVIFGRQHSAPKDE

Variants of: B1
Experiment: enrichment ratio after two sorts for PhoP signalling (ratio (wild type AVST 3.29)); higher = more functional
Conditions: with PhoP (E. coli)
Whole data set: some 140,000 sequences, median “enrichment ratio after two sorts for PhoP signalling” near 0, cut for the highest 2% near 11. Many of the other results were omitted from the sample, so the highest values are more common in it than they were.
Could you respond with only the numeric value?

Data request: Input "SEAM" , output reported enrichment ratio.
Data returned: 15.9

Data request: Input "SMSF" , output reported enrichment ratio.
Data returned: 5.95

Data request: Input "GDLC" , output reported enrichment ratio.
Data returned: 1.96

Data request: Input "SRSM" , output reported enrichment ratio.
Data returned: 0.977

Next:
Data request: Input "SQSM" , output reported enrichment ratio.
Data returned: 15.9
